Target: Recombinant human IL-1β (BioLegend 579404) (human, UniProt P01584 117-269)
Test: cell-based or functional assay
Starred links: 1 amine or outer side, 2 acyl side, 3 side chain; linkers in the order of their positions; H or OH if unused. Non-standard residues stand in square brackets, D forms with d. AEFPyrzCO = (S)-2-amino-3-(4-(2-(pyrazine-2-carboxamido)ethoxy)phenyl)propanoic acid, O=C(NCCOc1ccc(C[C@H](N[*:1])C(=O)[*:2])cc1)c1cnccn1; Phe4ImMe = (S)-2-amino-3-(4-(1-methyl-1H-imidazol-4-yl)phenyl)propanoic acid, Cn1cnc(-c2ccc(C[C@H](N[*:1])C(=O)[*:2])cc2)c1; TyrEtNAc = (2S)-3-[4-(2-acetamidoethoxy)phenyl]-2-amino-propanoic acid, CC(=O)NCCOc1ccc(C[C@H](N[*:1])C(=O)[*:2])cc1; 4PyrimAla = (2S)-2-amino-3-pyrimidin-4-yl-propanoic acid, O=C([C@H](Cc1ccncn1)N[*:1])[*:2]; Ala3Isoxa5Me = 3-(5-methylisoxazol-3-yl)alanine, Cc1cc(C[C@H](N[*:1])C(=O)[*:2])no1; dPro(4R-(4-pyridylmethyl)) = O=C(O)[C@H]1C[C@@H](Cc2ccncc2)CN1; Trp(βS-Me,4-F) = C[C@@H](c1c[nH]c2cccc(F)c12)[C@H](N)C(=O)O; Bip(4'-COOH) = N[C@@H](Cc1ccc(-c2ccc(C(=O)O)cc2)cc1)C(=O)O; dPro(4R-Bzl(4-F)) = O=C(O)[C@H]1C[C@@H](Cc2ccc(F)cc2)CN1; dPro(3S-(4-F-Bn)) = O=C(O)[C@@H]1NCC[C@@H]1Cc1ccc(F)cc1; Bip(4'-Cl) = N[C@@H](Cc1ccc(-c2ccc(Cl)cc2)cc1)C(=O)O; Ala(pyrimidin-5-yl) = N[C@@H](Cc1cncnc1)C(=O)O; Phe(4-COOH) = N[C@@H](Cc1ccc(C(=O)O)cc1)C(=O)O; Pro(cis-4-F) = O=C(O)[C@@H]1C[C@H](F)CN1; d(αMeD) = C[C@@](N)(CC(=O)O)C(=O)O; 4Pal = N[C@@H](Cc1ccncc1)C(=O)O; Dab = NCC[C@H](N)C(=O)O; Aib = CC(C)(N)C(=O)O
endpoint name: MRC5 IC50 (nM)

// solved cases for MRC5 IC50 follow
binder	unit abbrev	observed
cyclo([TyrEtNAc][4Pal][Phe(4-COOH)]G[Pro(cis-4-F)][Trp(βS-Me,4-F)][Aib]EW[Aib][Ala3Isoxa5Me]Q[Dab]G[dPro(4R-(4-pyridylmethyl))]) (ring closure inferred; not fully specified (N-terminus)) [SEQ ID NO 315]	nM	0.018
cyclo([Phe4ImMe][4Pal][Phe(4-COOH)]G[Pro(cis-4-F)][Trp(βS-Me,4-F)][Aib]SW[d(αMeD)][Ala(pyrimidin-5-yl)]Q[Dab]G[dPro(3S-(4-F-Bn))]) (ring closure inferred) [SEQ ID NO 279]	nM	0.013
cyclo([AEFPyrzCO][4Pal][Phe(4-COOH)]G[Pro(cis-4-F)][Trp(βS-Me,4-F)][Aib]SW[Aib][Ala(pyrimidin-5-yl)]Q[Dab]G[dPro(4R-(4-pyridylmethyl))]) (ring closure inferred; not fully specified (N-terminus); printed as cyclic, AEFPyrzCO-4Pal-Phe4COOH-G-Proc4F-SbMeW4F-Aib-S-W-Aib-PyrimAla-Q-Dab-G-dProc4CH24Pal) [SEQ ID NO 303]	nM	0.016

1: cyclo([Bip(4'-COOH)][4Pal][Phe(4-COOH)]G[Pro(cis-4-F)][Trp(βS-Me,4-F)][Aib]EW[Aib][4PyrimAla]Q[Dab]G[dPro(4R-Bzl(4-F))]) (ring closure inferred) [SEQ ID NO 345]
2: cyclo([Bip(4'-Cl)][4Pal][Phe(4-COOH)]G[Pro(cis-4-F)][Trp(βS-Me,4-F)][Aib]SW[d(αMeD)][Ala(pyrimidin-5-yl)]Q[Dab]G[dPro(4R-(4-pyridylmethyl))]) (ring closure inferred) [SEQ ID NO 344]
Query: Input pair: 1 , 2 . Output: entry with lower MRC5 IC50. Your answer should be the label attached to the chosen record.
Result: 1
(1: 0.012 nM, 2: 0.022 nM)

The reported measurements were obtained from patent US20260242419A1.
